# Tested on: MGC-803
# assay-info: Antiproliferative activity against human MGC-803 cells assessed as reduction in cell viability incubated for 48 hrs by MTT assay
# Assay type: functional, cell-based
# details: MGC-803, 48 h
pIC50: −log10 of the molar value.

smiles-string	pIC50
COC(=O)c1cc(Br)ccc1OCCCOc1ccc(-c2cc(=O)c3c(OC)c(OC)c(OC)cc3o2)cc1	4.77

----------
# assayed-target: Acetylcholinesterase (Homo sapiens, UniProt P22303)
# Sequence (P22303 whole entry): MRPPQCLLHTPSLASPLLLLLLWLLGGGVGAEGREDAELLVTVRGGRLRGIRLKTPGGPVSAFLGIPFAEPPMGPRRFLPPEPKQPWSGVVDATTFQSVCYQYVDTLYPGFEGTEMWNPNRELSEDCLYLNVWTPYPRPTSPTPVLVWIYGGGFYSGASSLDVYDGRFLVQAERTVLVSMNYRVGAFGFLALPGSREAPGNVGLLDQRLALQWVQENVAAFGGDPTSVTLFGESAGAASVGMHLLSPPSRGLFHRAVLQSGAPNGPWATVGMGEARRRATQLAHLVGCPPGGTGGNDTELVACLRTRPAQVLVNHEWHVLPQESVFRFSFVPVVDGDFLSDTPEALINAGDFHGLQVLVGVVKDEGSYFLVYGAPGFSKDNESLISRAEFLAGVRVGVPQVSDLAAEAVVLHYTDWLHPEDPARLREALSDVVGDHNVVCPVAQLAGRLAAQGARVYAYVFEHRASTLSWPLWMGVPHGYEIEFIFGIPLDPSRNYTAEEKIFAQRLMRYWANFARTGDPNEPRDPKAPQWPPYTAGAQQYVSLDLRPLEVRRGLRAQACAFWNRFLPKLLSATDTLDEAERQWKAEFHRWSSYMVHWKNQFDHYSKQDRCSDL
# assay-info: Inhibition of human AChE
property-label: IC50 (µM)

smiles-string	value-reported
CCN(C)C(=O)Oc1ccc(-c2cc(=O)c3c(O)c(O)c(OC(=O)N[C@@H](Cc4ccccc4)C(=O)OC(C)(C)C)cc3o2)cc1	7.91

Data credit: ChEMBL document CHEMBL5331058
